The values you see were collected from patent US9663508B2.

Experimental System: human Nav 1.5 (Homo sapiens (Human), UniProt Q14524)
Sequence (Q14524 whole entry): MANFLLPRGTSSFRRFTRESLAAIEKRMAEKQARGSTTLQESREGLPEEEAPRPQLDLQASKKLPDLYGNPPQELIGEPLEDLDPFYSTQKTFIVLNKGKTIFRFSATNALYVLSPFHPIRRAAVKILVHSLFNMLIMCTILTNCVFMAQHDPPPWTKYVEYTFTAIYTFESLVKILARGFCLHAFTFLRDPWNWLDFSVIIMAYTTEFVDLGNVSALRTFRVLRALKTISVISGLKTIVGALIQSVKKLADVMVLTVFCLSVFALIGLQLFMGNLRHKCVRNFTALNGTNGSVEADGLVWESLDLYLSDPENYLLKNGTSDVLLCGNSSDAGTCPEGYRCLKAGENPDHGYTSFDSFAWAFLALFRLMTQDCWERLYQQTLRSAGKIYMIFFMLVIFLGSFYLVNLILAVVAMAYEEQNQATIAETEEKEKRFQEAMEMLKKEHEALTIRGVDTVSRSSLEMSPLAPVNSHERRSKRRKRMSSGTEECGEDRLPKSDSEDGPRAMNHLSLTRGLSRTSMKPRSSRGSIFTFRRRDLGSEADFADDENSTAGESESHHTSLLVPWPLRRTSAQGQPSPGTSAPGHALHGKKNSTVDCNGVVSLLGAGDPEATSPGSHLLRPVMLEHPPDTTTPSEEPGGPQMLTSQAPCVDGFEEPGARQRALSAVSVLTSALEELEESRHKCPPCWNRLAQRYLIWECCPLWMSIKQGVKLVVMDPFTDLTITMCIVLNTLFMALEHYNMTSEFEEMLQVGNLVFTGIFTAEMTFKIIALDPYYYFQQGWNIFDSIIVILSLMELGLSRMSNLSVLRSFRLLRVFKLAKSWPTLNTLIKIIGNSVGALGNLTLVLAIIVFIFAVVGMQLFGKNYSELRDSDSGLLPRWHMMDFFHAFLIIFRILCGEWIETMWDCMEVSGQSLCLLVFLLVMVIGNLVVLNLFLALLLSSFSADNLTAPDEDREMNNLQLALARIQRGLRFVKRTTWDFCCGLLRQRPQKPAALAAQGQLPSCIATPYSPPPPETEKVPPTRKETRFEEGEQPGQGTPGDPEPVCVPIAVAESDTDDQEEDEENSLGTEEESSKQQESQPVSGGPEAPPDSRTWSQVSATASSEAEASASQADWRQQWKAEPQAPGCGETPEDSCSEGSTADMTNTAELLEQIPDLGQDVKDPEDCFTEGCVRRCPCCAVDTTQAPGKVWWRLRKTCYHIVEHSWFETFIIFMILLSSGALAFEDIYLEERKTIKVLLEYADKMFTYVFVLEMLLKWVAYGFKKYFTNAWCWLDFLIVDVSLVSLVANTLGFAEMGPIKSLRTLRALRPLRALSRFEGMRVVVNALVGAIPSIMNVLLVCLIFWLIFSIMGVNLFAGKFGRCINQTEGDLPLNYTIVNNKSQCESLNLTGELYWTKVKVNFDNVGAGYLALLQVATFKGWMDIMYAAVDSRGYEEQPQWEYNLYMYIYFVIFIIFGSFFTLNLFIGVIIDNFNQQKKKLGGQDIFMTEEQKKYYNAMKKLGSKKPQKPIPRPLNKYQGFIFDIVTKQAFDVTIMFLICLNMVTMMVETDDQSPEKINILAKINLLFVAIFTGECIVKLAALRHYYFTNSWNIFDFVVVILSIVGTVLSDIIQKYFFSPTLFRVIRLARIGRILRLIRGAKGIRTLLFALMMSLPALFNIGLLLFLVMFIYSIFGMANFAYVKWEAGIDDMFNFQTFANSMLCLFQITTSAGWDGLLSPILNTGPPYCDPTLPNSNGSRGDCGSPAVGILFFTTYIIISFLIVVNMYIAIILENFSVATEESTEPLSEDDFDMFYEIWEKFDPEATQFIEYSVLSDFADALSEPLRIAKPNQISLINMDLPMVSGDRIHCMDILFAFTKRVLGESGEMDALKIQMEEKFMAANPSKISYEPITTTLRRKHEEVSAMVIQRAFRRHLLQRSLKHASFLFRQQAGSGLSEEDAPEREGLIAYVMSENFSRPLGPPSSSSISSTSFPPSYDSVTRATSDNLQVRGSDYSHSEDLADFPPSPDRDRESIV
Assay Details: Nav 1.5 IonWorks Quattro (IWQ) in vitro assay
Type: cell-based
Experimental Conditions: read-out: NAV 1.5 IWQ IC50
Property Measured: pIC50
Friendly reminder that pIC50 comes from taking -log10 of the concentration in mol/L.

Example results:
# Entry Smiles, pIC50
rows = [
    ("Cc1cc(C(=O)NS(C)(=O)=O)c(F)cc1-c1cnc(Oc2ccc(C)c3c2CCC3)c(Cl)c1", 5.42),
    ("Cc1cc(C(=O)NS(C)(=O)=O)c(F)cc1-c1cnc(O[C@@H](C)c2cc(Cl)ccc2Cl)c(Cl)c1", 5.31),
]

Proceeding to the next molecule to report its pIC50.
Field request: pIC50 | item: Cc1cc(C(=O)NS(C)(=O)=O)c(F)cc1-c1cnc(Oc2c(F)cc(F)cc2Cl)c(Cl)c1
5.47

====

Experimental System: UniProt Q15858
Assay Details: Nav 1.7 in vitro PatchXpress (PX) assay
Type: cell-based
Experimental Conditions: in-vitro Nav 1.7 PX data
In plain terms, low IC50, meaning strictly below 80 nM, gives MET, and everything else gives NOT MET.

These recorded examples may help you get a feel for the data.
# Entry Smiles, Assigned Label
measured = [
    ("Cc1cc(C(=O)NS(=O)(=O)C2CC2)c(F)cc1-c1cnc(OC2CCC2)c(Cl)c1", "NOT MET"),
    ("COc1cc(C(=O)NS(C)(=O)=O)c(F)cc1-c1cnc(Oc2c(C)cccc2Cl)c(Cl)c1", "MET"),
    ("COc1cc(C(=O)NS(C)(=O)=O)c(F)cc1-c1cnc(OCC2(C)CCCCC2)c(Cl)c1", "NOT MET"),
    ("CC(C)COc1ncc(-c2cc(F)c(C(=O)NS(C)(=O)=O)cc2F)cc1-c1cc(F)cc(F)c1", "NOT MET"),
    ("COc1cc(C(=O)NS(C)(=O)=O)c(F)cc1-c1cnc(Sc2ccc(C)cc2)c(Cl)c1", "MET"),
    ("COc1cc(C(=O)NS(C)(=O)=O)c(F)cc1-c1cnc(Oc2ccc(C)c(Cl)c2)c(Cl)c1", "NOT MET"),
    ("COc1cc(C(=O)NS(C)(=O)=O)c(F)cc1-c1cnc(Oc2cccc(Cl)c2F)c(Cl)c1", "MET"),
    ("Cc1c(Cl)cccc1Oc1ncc(-c2cc(F)c(C(=O)NS(C)(=O)=O)cc2OC(F)F)cc1Cl", "MET"),
    ("COc1cc(C(=O)NS(C)(=O)=O)c(F)cc1-c1cnc(Oc2c(Cl)cc(F)cc2Cl)c(Cl)c1", "NOT MET"),
    ("COc1cc(C(=O)NS(C)(=O)=O)c(F)cc1-c1cnc(Oc2ccc(F)c3c2CCC3)c(Cl)c1", "MET"),
]

Problem: For the compound COc1cc(C(=O)NS(C)(=O)=O)ccc1-c1cnc(Oc2cc(Cl)cc(Cl)c2)c(C=O)c1 , is IC50 under 80 nM?
NOT MET

Problem: For the compound COc1cc(C(=O)NS(C)(=O)=O)c(F)cc1-c1cnc(Oc2ccc(Cl)cc2Cl)c(Cl)c1 , is IC50 under 80 nM?
MET

Problem: For the compound COc1cc(C(=O)NS(C)(=O)=O)c(F)cc1-c1cnc(N[C@@H]2CC23CCCC3)c(Cl)c1 , is IC50 under 80 nM?
NOT MET

Problem: For the compound COc1cc(C(=O)NS(C)(=O)=O)c(F)cc1-c1cnc(O[C@@H]2CCC[C@H]2C)c(Cl)c1 , is IC50 under 80 nM?
NOT MET

Problem: For the compound COc1cc(C(=O)NS(C)(=O)=O)c(F)cc1-c1cnc(Oc2cc(F)cc(F)c2)c(Cl)c1 , is IC50 under 80 nM?
NOT MET

====

Experimental System: human Nav1.7 (Homo sapiens (Human), UniProt Q15858)
Sequence (Q15858 whole entry): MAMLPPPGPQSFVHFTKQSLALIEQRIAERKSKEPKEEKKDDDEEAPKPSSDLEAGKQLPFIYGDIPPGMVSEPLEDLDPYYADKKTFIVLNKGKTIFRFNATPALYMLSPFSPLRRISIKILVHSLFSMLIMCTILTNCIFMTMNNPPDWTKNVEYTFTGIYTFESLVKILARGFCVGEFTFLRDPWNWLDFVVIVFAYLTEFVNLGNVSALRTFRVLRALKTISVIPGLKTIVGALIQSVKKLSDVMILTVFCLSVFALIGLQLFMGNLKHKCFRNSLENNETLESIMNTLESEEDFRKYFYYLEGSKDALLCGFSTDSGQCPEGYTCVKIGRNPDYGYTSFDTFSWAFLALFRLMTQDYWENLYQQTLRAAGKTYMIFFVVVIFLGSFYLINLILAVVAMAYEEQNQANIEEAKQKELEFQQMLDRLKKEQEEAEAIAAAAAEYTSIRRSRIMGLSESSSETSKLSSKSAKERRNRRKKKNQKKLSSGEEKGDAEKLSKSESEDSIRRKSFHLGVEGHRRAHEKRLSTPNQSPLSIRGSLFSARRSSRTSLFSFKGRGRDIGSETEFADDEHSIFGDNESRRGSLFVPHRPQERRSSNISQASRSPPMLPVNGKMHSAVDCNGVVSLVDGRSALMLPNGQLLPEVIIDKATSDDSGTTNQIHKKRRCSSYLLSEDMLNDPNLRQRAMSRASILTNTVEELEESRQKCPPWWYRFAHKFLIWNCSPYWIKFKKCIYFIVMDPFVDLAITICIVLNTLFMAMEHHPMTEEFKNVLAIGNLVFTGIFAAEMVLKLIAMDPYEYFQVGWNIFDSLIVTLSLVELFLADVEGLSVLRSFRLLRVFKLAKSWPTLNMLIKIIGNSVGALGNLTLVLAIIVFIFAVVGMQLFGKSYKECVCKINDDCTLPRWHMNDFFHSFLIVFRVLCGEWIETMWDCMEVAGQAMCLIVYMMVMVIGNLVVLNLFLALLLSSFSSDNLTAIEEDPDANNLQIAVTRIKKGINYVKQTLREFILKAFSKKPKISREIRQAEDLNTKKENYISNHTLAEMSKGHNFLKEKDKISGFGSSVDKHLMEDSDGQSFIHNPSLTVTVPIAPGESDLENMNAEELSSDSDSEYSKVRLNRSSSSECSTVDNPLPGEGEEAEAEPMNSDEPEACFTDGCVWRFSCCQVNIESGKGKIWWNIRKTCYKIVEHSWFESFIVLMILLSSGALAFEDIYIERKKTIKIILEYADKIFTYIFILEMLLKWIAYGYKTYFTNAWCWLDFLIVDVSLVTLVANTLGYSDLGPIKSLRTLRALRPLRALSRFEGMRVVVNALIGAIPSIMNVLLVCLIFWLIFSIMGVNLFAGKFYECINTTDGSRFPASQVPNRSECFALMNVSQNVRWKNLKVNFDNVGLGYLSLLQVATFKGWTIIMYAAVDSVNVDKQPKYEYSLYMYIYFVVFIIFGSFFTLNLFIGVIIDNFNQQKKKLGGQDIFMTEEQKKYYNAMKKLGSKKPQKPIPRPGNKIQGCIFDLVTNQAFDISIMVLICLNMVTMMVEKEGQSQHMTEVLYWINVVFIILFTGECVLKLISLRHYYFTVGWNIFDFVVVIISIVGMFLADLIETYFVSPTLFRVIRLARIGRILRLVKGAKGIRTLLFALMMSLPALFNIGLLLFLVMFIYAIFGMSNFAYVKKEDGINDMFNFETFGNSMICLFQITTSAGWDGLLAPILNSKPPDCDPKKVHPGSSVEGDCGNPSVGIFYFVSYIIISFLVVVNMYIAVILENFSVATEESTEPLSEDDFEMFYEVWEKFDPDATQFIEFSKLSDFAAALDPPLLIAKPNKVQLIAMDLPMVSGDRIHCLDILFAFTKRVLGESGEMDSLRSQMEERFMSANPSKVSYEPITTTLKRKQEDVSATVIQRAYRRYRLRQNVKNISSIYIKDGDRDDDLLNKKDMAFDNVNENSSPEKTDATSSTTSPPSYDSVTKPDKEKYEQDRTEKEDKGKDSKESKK
Assay Details: Nav 1.7 in vitro PatchXpress (PX) assay
Assay type: cell-based
Property Measured: IC50 (nM)
Give just the numeric value; nM need not be written.

Example results:
# Molecule, Units Label, IC50
measured = [
    ("CCOc1ccc(Oc2ncc(-c3cc(F)c(C(=O)NS(C)(=O)=O)cc3C)cc2Cl)cc1F [Example 645]", "nM", 97.3),
    ("COc1cc(C(=O)NS(C)(=O)=O)ccc1-c1cnc(Oc2cc(Cl)ccc2Cl)c(Cl)c1 [Example 582]", "nM", 61.4),
    ("CC[C@@H](Oc1ncc(-c2cc(F)c(C(=O)NS(C)(=O)=O)cc2C)cc1Cl)c1ccc(F)c(C)c1 [Example 675]", "nM", 54),
    ("Cc1cc(C(=O)NS(C)(=O)=O)c(F)cc1-c1cnc(Oc2ccc(OC(C)C)cc2)c(Cl)c1 [Example 663]", "nM", 108),
    ("Cc1cc(C(=O)NS(C)(=O)=O)c(F)cc1-c1cnc(Oc2cccc(C(F)(F)F)c2C)c(Cl)c1 [Example 677]", "nM", 83.7),
]

Field request: IC50 | item: Cc1cc(C(=O)NS(C)(=O)=O)c(F)cc1-c1cnc(Oc2c(F)cc(F)cc2F)c(Cl)c1 [Example 622]
87.3

Field request: IC50 | item: Cc1cc(C(=O)NS(C)(=O)=O)c(F)cc1-c1cnc(Oc2cc(F)c(Br)cc2Cl)c(Cl)c1 [Example 606]
71.7

====

Experimental System: human Nav1.7 (Homo sapiens (Human), UniProt Q15858)
Assay Details: Nav 1.7 in vitro PatchXpress (PX) assay
Assay type: cell-based
Overview of recorded IC50 for various compounds
Give just the numeric value; µM need not be written.

# Entry Smiles, Units Label, Experimental Result
rows = [
    ("Cc1cc(C(=O)NS(C)(=O)=O)c(F)cc1-c1cnc(O[C@H](C)c2ccccc2C(F)(F)F)c(Cl)c1", "µM", 0.0863),
    ("Cc1cc(C(=O)NS(C)(=O)=O)c(F)cc1-c1cnc(Oc2ccc(F)c3c2CCC3)c(Cl)c1", "µM", 0.0675),
    ("Cc1cc(C(=O)NS(C)(=O)=O)c(F)cc1-c1cnc(Oc2cc(C(F)(F)F)ccc2Cl)c(Cl)c1", "µM", 0.0705),
]

Proceeding to the next compound to report its IC50.
Field request: IC50 | item: CS(=O)(=O)NC(=O)c1ccc(-c2cnc(Oc3cc(Cl)cc(Cl)c3)c(Cl)c2)c(OC2COC2)c1
0.0313

====

Experimental System: human Nav1.7 (Homo sapiens (Human), UniProt Q15858)
Assay Details: Nav 1.7 in vitro PatchXpress (PX) assay
Format: cell-based
In plain terms, low IC50, meaning strictly below 80 nM, gives YES, and everything else gives NO.

# Entry Smiles, Assigned Label
records = [
    ("Cc1cc(C(=O)NS(C)(=O)=O)c(F)cc1-c1cnc(Oc2cc(F)c(Cl)c(F)c2)c(Cl)c1", "NO"),
    ("Cc1ccc(Oc2ncc(-c3ccc(C(=O)NS(C)(=O)=O)cc3OC3COC3)cc2Cl)cc1Cl", "YES"),
    ("Cc1ccc(Oc2ncc(-c3cc(F)c(C(=O)NS(C)(=O)=O)cc3F)cc2Cl)c(F)c1F", "YES"),
    ("Cc1cc(C(=O)NS(C)(=O)=O)c(F)cc1-c1cnc(N2CCC[C@@H]2c2ccccc2C(F)(F)F)c(Cl)c1", "NO"),
    ("COc1cc(C(=O)NS(C)(=O)=O)ccc1-c1cnc(OCc2ccc(Cl)cc2)c(Cl)c1", "YES"),
]

Problem: For the compound COc1cc(C(=O)NS(C)(=O)=O)ccc1-c1cnc(Oc2ccc(Cl)c(C(F)(F)F)c2)c(Cl)c1 , is IC50 under 80 nM?
YES

Problem: For the compound CS(=O)(=O)NC(=O)c1cc(Cl)c(-c2cnc(Oc3cc(F)cc(F)c3Cl)c(Cl)c2)cc1F , is IC50 under 80 nM?
YES

Problem: For the compound Cc1cc(C(=O)NS(C)(=O)=O)c(F)cc1-c1cnc(Oc2cccc(F)c2F)c(Cl)c1 , is IC50 under 80 nM?
NO

Problem: For the compound COc1cc(C(=O)NS(C)(=O)=O)c(F)cc1-c1cnc(OC2CCC2)c(Cl)c1 , is IC50 under 80 nM?
YES

Problem: For the compound Cc1ccc(Cl)cc1Oc1ncc(-c2cc(F)c(C(=O)NS(C)(=O)=O)cc2Cl)cc1Cl , is IC50 under 80 nM?
YES

Problem: For the compound Cc1ccc(C(C)(C)C)c(Oc2ncc(-c3cc(F)c(C(=O)NS(C)(=O)=O)cc3C)cc2Cl)c1 , is IC50 under 80 nM?
NO

Problem: For the compound COc1cc(C(=O)NS(C)(=O)=O)ccc1-c1cnc(Oc2c(Cl)cccc2Cl)c(Cl)c1 , is IC50 under 80 nM?
NO

Problem: For the compound COc1cc(C(=O)NS(C)(=O)=O)ccc1-c1cnc(Oc2ccc(Cl)cc2F)c(Cl)c1 , is IC50 under 80 nM?
YES

Problem: For the compound Cc1ccc(Cl)cc1Oc1ncc(-c2cc(F)c(C(=O)NS(C)(=O)=O)cc2F)cc1Cl , is IC50 under 80 nM?
NO
